- System tested: D2 receptor (Homo sapiens, UniProt P14416)
- Sequence (P14416 whole entry): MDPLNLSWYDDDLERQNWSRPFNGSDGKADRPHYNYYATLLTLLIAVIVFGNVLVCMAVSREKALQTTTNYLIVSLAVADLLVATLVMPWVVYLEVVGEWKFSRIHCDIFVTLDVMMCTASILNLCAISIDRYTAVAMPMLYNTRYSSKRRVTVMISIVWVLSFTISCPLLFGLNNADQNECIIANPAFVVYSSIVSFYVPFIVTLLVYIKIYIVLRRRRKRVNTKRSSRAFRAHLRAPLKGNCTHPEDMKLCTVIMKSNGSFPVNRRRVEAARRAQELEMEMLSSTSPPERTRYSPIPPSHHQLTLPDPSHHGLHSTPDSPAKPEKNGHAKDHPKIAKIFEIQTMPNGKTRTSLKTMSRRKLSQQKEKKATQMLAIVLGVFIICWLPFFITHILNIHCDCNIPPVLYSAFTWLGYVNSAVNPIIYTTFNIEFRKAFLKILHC
- Test details: FLIPR Ca^2+ flux agonist assay at D2
- Format: cell-based
- Condition description: Ca^2+ flux, agonist; read-out: D2 EC50
pEC50: −log10 of the molar value.
Below, each entry is listed with its recorded pEC50.
Outcome measure: pEC50

INSERT INTO results (entry_smiles, measured_number) VALUES
  ('CCN(CC)C(=O)[C@@H]1C=C2c3cccc4[nH]cc(c34)C[C@H]2N(Cc2ccccc2OC)C1', 6.01),
  ('CCN(CC)C(=O)[C@@H]1C=C2c3cccc4[nH]cc(c34)C[C@H]2N(CCc2ccccc2OC)C1', 6.07);

====

- System tested: UniProt:P28222
- Sequence (P28222 whole entry): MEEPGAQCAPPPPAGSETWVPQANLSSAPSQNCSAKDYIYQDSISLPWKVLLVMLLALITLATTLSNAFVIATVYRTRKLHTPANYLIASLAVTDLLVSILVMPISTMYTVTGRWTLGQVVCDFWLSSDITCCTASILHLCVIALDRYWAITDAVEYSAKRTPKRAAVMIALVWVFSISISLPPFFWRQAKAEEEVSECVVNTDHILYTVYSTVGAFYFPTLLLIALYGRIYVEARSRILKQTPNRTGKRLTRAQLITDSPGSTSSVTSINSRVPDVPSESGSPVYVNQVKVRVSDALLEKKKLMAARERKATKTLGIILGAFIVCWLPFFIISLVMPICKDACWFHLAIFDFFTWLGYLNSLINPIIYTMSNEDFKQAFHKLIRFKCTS
- Test details: cAMP accumulation agonist assay at 5-HT1B
- Type: cell-based
- Condition description: cAMP, agonist; read-out: 5-HT1B EC50
Measured EC50, listed per entry for reference.
Outcome measure: EC50 (nM)

INSERT INTO assay_data (compound, outcome_measure, comparator, measured_number) VALUES
  ('CCN(CC)C(=O)[C@@H]1C=C2c3cccc4[nH]cc(c34)C[C@H]2N(CC2CC2)C1 [Compound 13]', 'EC50', '=', 98.6),
  ('C=CCN1C[C@H](C(=O)N2[C@@H](C)C[C@@H]2C)C=C2c3cccc4[nH]cc(c34)C[C@H]21 [Compound 27]', 'EC50', '=', 88.7),
  ('CCN(CC)C(=O)[C@@H]1C=C2c3cccc4[nH]cc(c34)C[C@H]2N(Cc2ccccc2OC)C1 [Compound 10]', 'EC50', '=', 3190),
  ('CCCN1C[C@H](C(=O)N(CC)CC)C=C2c3cccc4[nH]cc(c34)C[C@H]21 [Compound 1]', 'EC50', '=', 3.82),
  ('CCN(CC)C(=O)[C@@H]1C=C2c3cccc4[nH]cc(c34)C[C@H]2N(CCc2cccc(OC)c2)C1 [Compound 20]', 'EC50', '>', 10000),
  ('CCN(CC)C(=O)[C@@H]1C=C2c3cccc4[nH]cc(c34)C[C@H]2N(C)C1 [LSD, lysergic acid diethylamide, reference compound]', 'EC50', '=', 2.06),
  ('CN1C[C@H](C(=O)N2CCCC2)C=C2c3cccc4[nH]cc(c34)C[C@H]21 [Int22]', 'EC50', '=', 7.38),
  ('CCCN1C[C@H](C(=O)N[C@H](C)CC)C=C2c3cccc4[nH]cc(c34)C[C@H]21 [Compound 3]', 'EC50', '=', 68.8),
  ('CCN(CC)C(=O)[C@@H]1C=C2c3cccc4[nH]cc(c34)C[C@H]2N(CCF)C1 [Compound 39]', 'EC50', '=', 1100),
  ('CCN(CC)C(=O)[C@@H]1C=C2c3cccc4[nH]cc(c34)C[C@H]2N(Cc2ccccn2)C1 [Compound 22]', 'EC50', '=', 847),
  ('CCN(CC)C(=O)[C@@H]1C=C2c3cccc4c3C(CN4)C[C@H]2N(C)C1 (mixture of isomers) [Compound 37]', 'EC50', '=', 19.4),
  ('CCN(CC)C(=O)[C@@H]1C=C2c3cccc4[nH]cc(c34)C[C@H]2N(CCc2ccccn2)C1 [Compound 23]', 'EC50', '=', 450),
  ('CCN(CC)C(=O)[C@@H]1C=C2c3cccc4[nH]cc(c34)C[C@H]2N(Cc2ccc(OC)cc2)C1 [Compound 19]', 'EC50', '=', 5850),
  ('CCC(CC)NC(=O)[C@@H]1C=C2c3cccc4[nH]c(Br)c(c34)C[C@H]2N(C)C1 [Compound 44]', 'EC50', '=', 1270),
  ('CN1C[C@H](C(=O)N(CCF)CCF)C=C2c3cccc4[nH]cc(c34)C[C@H]21 [Compound 38]', 'EC50', '=', 4.65);
